compounds and their reported cytotoxicity at 70.5 h
test: Human HepG2 cell viability assay in 384 well format; format: toxicity, cell-based; set-up: dose 125 nL, time 70.5 hour; concentration not given beside the values; conditions: HepG2 cells, read-out: Inhibition
Your answer should be a plain number; it is taken to be in %.

CN(C)CCOCc1nnc2n1CCN(Cc1ccsc1)C2 | 2.24
CCN1CCN(C(=O)c2cc(-c3cccn3C)n[nH]2)[C@H]2CS(=O)(=O)C[C@H]21 | -18.3

Exercise: Fill in: cytotoxicity at 70.5 h of CCc1ccc(C(=O)Nc2ccc(CC3CC(=O)NC3=O)cc2)s1 (stereo not given) is ___
Solution: -4

Exercise: Fill in: cytotoxicity at 70.5 h of "Cc1n[nH]c(C)c1NC(=O)CN1CCc2c(nc(C3CC3)n2C)C1" is ___
Solution: 17.7

Exercise: Fill in: cytotoxicity at 70.5 h of "O=C(NC1(c2nnn(CC3CC3)n2)CCCC1)c1ccccc1" is ___
Solution: -7.63

Exercise: Fill in: cytotoxicity at 70.5 h of O=C(NCCC(O)c1ccco1)c1ccccc1Br (stereo not given) is ___
Solution: -2.47

Exercise: Fill in: cytotoxicity at 70.5 h of CCN(CC1CCOC1)C(=O)c1ccn(-c2ccc(OC)cc2)n1 (stereo not given) is ___
Solution: -3.5

Exercise: Fill in: cytotoxicity at 70.5 h of "COC(=O)CCCn1ccnc1-c1ccccc1" is ___
Solution: -3.23

Exercise: Fill in: cytotoxicity at 70.5 h of "Cc1ccsc1CN(Cc1ccccn1)CC(C)C" is ___
Solution: -6.06

Exercise: Fill in: cytotoxicity at 70.5 h of "COC(=O)CSCc1noc(-c2ccc(Cl)cc2)n1" is ___
Solution: -13.5

Exercise: Fill in: cytotoxicity at 70.5 h of CCCc1n[nH]c(C2CN(C(=O)c3ccc[nH]3)CCO2)n1 (stereo not given) is ___
Solution: -3.89

Exercise: Fill in: cytotoxicity at 70.5 h of "Cc1c[nH]c(CN2CCCn3nc(CNS(C)(=O)=O)cc3C2)n1" is ___
Solution: 16

Exercise: Fill in: cytotoxicity at 70.5 h of "CC(C)Oc1cccc(-c2nc3c([nH]2)CCCNC3=O)c1" is ___
Solution: 5.17

Exercise: Fill in: cytotoxicity at 70.5 h of "Cn1cc(-c2nc(CNCCn3cccn3)cs2)cn1" is ___
Solution: 12.5
